Molecular target: IRAK4 (Homo sapiens, UniProt Q9NWZ3)
Construct: Degradation of IRAK4 in OCI-LY10 was quantitatively measured using Meso Scale Discovery technology; endogenous in cells; host or cells: OCI-LY10
Sequence (Q9NWZ3 1-460): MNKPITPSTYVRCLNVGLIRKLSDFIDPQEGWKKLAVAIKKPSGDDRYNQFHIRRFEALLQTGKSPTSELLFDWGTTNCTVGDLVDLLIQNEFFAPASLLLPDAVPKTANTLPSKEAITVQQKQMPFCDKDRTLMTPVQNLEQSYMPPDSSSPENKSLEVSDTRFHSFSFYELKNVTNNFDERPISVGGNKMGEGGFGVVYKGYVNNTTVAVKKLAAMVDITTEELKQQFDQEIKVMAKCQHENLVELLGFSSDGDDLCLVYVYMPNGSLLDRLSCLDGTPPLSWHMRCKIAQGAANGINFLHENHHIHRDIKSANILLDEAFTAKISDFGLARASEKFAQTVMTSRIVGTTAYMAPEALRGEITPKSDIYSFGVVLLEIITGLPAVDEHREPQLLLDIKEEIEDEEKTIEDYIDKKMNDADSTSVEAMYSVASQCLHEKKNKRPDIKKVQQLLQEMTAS
Assay: IRAK4 MSD Degradation in OCI-LY10
Assay type: cell-based
Conditions: OCI-LY10 cells, 24 hrs incubation, MSD; read-out: IRAK4 degradation in OCI-LY10 at 24 hrs: DC50
Recorded measurements of DC50, one per entry

>>> result("Cn1c(=O)n(C2CCC(=O)NC2=O)c2cccc(N3CCC(N(C[C@H]4CC[C@H](n5cc(NC(=O)c6cnn7cccnc67)c(C(F)F)n5)CC4)C(F)(F)F)CC3)c21 (stereo partly drawn)")
"> 0.2 µM"
>>> result("Cn1c(=O)n(C2CCC(=O)NC2=O)c2cccc(C#CCN3CCN(C[C@H]4CC[C@H](n5cc(NC(=O)c6cnn7ccc(N8CC[C@@]9(CCOC9)C8)nc67)c(C(F)F)n5)CC4)CC3)c21 (stereo partly drawn)")
"> 0.2 µM"

// switching to the query compound
Q: Which DC50 reading was recorded for the compound Cn1c(=O)n(C2CCC(=O)NC2=O)c2cccc(C3=CCN(C[C@H]4CC[C@H](n5cc6cc(NC(=O)c7cccc(C(F)(F)F)n7)ccc6n5)CC4)CC3(F)F)c21 (stereo partly drawn) ?
A: > 0.2 µM
